# Test system: RXF 393 renal
# TEST_DETAILS: NCI-60 one-dose screen, 48 h (100 = growth as untreated, 0 = no growth, -100 = all killed)
# EXPERIMENTAL_SETUP: 10 µM
This is part of a sample that, as a whole, favours compounds with a hit. Of some 83,000 tested, about 20% had one in any assay. Activity calls are given as the source filed them. How the source made its calls: active means growth percent below 10; inactive means the rest.
In this section, each of the compounds is paired with its reported growth.
QUANTITY_MEASURED: growth

CN1CCN(CCCn2c(=O)c3sc4ncccc4c3n3nnc(-c4ccccc4)c23)CC1 : -68.3% (active)
O=C1/C=C/[C@@H](O)[C@@H]2C[C@@H](O)C[C@H]2/C=C/CCC[C@H](CCc2ccc(NC(=S)Nc3ccc4c(c3)C(=O)OC43c4ccc(O)cc4Oc4cc(O)ccc43)cc2)O1 : -30.2% (active)
Cc1[nH]c2ccccc2c1/C=N/Nc1ncnc2sc3c(c12)CCN(CC(=O)OC(C)(C)C)C3 : -0.516% (active)
COc1ccc([C@H]2[C@H](C(=O)Nc3cccnc3)c3ccccc3C(=O)N2c2ccccc2)cc1 : 94.2% (inactive)

Reference source: PubChem BioAssay (NCI)
